Tested on: lymphocytes of transgenic HLA-DR4 mice
assay.notes: Induction of T-helper responses in transgenic HLA-DR4 mice immunized with peptide (proliferation, IFN-γ, IL-4; FIG. 4)
Assay type: in vivo
particulars: 50 nanomoles peptide in complete Freund's adjuvant; two weeks after immunization; FIG. 4
recorded.endpoint: Production of IFN-γ

• FRYRMMMRMRAAA (Chimeric Peptide) [p61, ID; NO: 4] = did not produce
• FKYRQMMAPHAAA (Chimeric Peptide) [p37, ID; NO: 16] = did not produce
• YRYRMMMRMRAAA (Chimeric Peptide) [p62, ID; NO: 5] = did not produce
